System: RAW264.7
Assay: Antiinflammatory activity in mouse RAW264.7 cells assessed as inhibition of LPS-stimulated PGE2 production by ELISA
Format: functional, cell-based
property: IC50 (µM)
Give bare numbers, in µM.

Here are 4 molecules. What values of IC50 were reported for them?
1. O=c1cc(-c2ccc(O)cc2)oc2ccccc12
2. COc1ccc(-c2cc(=O)c3ccccc3o2)cc1OC
3. CS(=O)(=O)Nc1ccc([N+](=O)[O-])cc1OC1CCCCC1
4. O=c1cc(-c2ccc(O)c(O)c2)oc2ccccc12

1: 3.77; 2: 6.46; 3: 6.74; 4: 0.99

* * *

Tested on: RAW264.7
Test: Antiinflammatory activity in mouse RAW264.7 cells assessed as inhibition of LPS-stimulated NO production at 20 uM by ELISA relative to control
Format: functional
Threshold rule: inhibition at 20 µM greater than or equal to 20% is y; below that, n.

Here's what some known entries look like.
compound	group
COc1cc(OC)c2c(=O)cc(-c3ccc(OC)c(OC)c3)oc2c1 [TETRAMETHYLLUTEOLIN]	y
COc1ccc(-c2cc(=O)c3ccccc3o2)cc1OC [3',4'-DIMETHOXYFLAVONE]	y
O=c1cc(-c2ccc(-c3cccc4ccccc34)cc2)oc2ccccc12	n
O=c1cc(-c2cccc(O)c2)oc2ccccc12	n
COc1cccc(-c2cc(=O)c3ccccc3o2)c1	n
Cc1ccc2oc(-c3ccccc3)cc(=O)c2c1 [6-METHYLFLAVONE]	n
O=c1cc(-c2ccc(C(F)(F)F)cc2)oc2ccccc12	n
COc1cc(OC)c2c(=O)cc(-c3ccccc3)oc2c1 [CHRYSIN DIMETHYL ETHER]	y

For this compound, is measured inhibition at 20 µM 20% or higher? O=c1cc(-c2ccc(F)cc2)oc2ccccc12
y

Exam item: decide whether the reported inhibition at 20 µM for O=c1cc(-c2ccccc2)oc2cc3c(cc12)OCO3 is at least 20%.
y

* * *

Test system: RAW264.7
Test: Antiinflammatory activity in mouse RAW264.7 cells assessed as inhibition of LPS-stimulated NO production at 20 uM by ELISA relative to control
Format: functional
Returns one of class 1 or class 0; class 1 when inhibition at 20 µM is >= 20%.

Examples with answers:
record_smiles	measured_on	group
COc1ccc2c(=O)cc(-c3ccccc3)oc2c1	RAW264.7	class 0
COc1ccc(-c2cc(=O)c3ccccc3o2)c(OC)c1	RAW264.7	class 1
COc1ccc(-c2cc(=O)c3ccccc3o2)cc1	RAW264.7	class 0
O=c1cc(-c2ccc(-c3ccccc3)cc2)oc2ccccc12	RAW264.7	class 0
C[Si](C)(C)c1ccc(-c2cc(=O)c3ccccc3o2)cc1	RAW264.7	class 0
O=c1cc(-c2ccccc2)oc2ccc([N+](=O)[O-])cc12	RAW264.7	class 0

Does COc1ccc2oc(-c3ccccc3)cc(=O)c2c1 have a reported inhibition at 20 µM of at least 20%?
class 1

Quick check, inhibition at 20 µM >= 20%? O=c1cc(-c2ccccc2)oc2ccccc12
class 0

Is it the case that O=c1cc(-c2ccc(Cl)cc2)oc2ccccc12 has inhibition at 20 µM reaching or exceeding 20%?
class 0

# check: inhibition at 20 µM of CC(C)(C)C(=O)Oc1ccc2c(=O)cc(-c3ccccc3)oc2c1 is greater than or equal to 20%
class 1

Item COc1ccc(-c2cc(=O)c3c(OC)cc(OC)cc3o2)cc1 with inhibition at 20 µM of 20% or above?
class 1

Kindly determine if inhibition at 20 µM recorded for O=c1cc(-c2ccc(O)cc2)oc2ccccc12 is above or exactly 20%.
class 1

Is the recorded value of inhibition at 20 µM equal to or greater than 20% for this molecule? O=c1cc(-c2ccccc2)oc2ccc(Cl)cc12
class 1

* * *

Assay: Cytotoxicity against LPS-stimulated mouse RAW264.7 cells assessed as cell viability at 5 uM by MTT assay (reference value: 100.01 +/- 0.05 %)
Assay type: cell-based
Conditions: LPS-stimulated RAW264.7 cells, read-out: Activity
property: viability at 5 µM
Just the number plus its unit, please.

Quick check: viability at 5 µM of O=c1cc(-c2ccc(O)c(O)c2)oc2cc(O)cc(O)c12 ?
98%

* * *

Field: viability at 20 µM. Provide a value for each of the molecules that follow.
Test: Cytotoxicity against LPS-stimulated mouse RAW264.7 cells assessed as cell viability at 20 uM by MTT assay (reference value: 100.01 +/- 0.05 %)
Assay type: cell-based
Conditions: LPS-stimulated RAW264.7 cells, read-out: Activity
Answers are plain numbers, in %.

Below, 2 molecules whose answers are already recorded.
record_smiles	viability at 20 µM [%]
O=c1cc(-c2cccc(O)c2)oc2ccccc12	97
COc1ccc2oc(-c3ccccc3)cc(=O)c2c1	116

Please state, for each entry, its recorded viability at 20 µM.
1. COc1cccc(-c2cc(=O)c3ccccc3o2)c1
2. COc1ccc(-c2cc(=O)c3ccccc3o2)cc1OC
3. Cc1ccc2oc(-c3ccccc3)cc(=O)c2c1
4. O=c1cc(-c2ccccc2)oc2ccc(Cl)cc12
5. COc1cc(OC)c2c(=O)cc(-c3ccc(OC)c(OC)c3)oc2c1
6. O=c1cc(-c2ccccc2)oc2ccc(F)cc12
7. O=c1cc(-c2ccc(-c3cccc4ccccc34)cc2)oc2ccccc12
8. O=c1cc(-c2ccc(C(F)(F)F)cc2)oc2ccccc12

[102, 117, 116, 91.4, 109, 75.2, 99.8, 87.9]

* * *

System: RAW264.7
Experiment: Antiinflammatory activity in mouse RAW264.7 cells assessed as inhibition of LPS-stimulated PGE2 production by ELISA
Type: functional, cell-based
I'd be grateful if you could share measured IC50 for these entries.
Numbers only, in µM.

Completed entries (count: 4):
compound	units_of_measure	IC50
COc1cc(OC)c2c(=O)cc(-c3ccc(OC)c(OC)c3)oc2c1	µM	3.13
COc1cc(OC)c2c(=O)cc(-c3ccccc3)oc2c1	µM	7.43
COc1cc(OC)c2c(=O)cc(-c3ccc(O)c(O)c3)oc2c1	µM	14
CC(C)Cc1ccc(C(C)C(=O)O)cc1 (stereo not given)	µM	0.39

For the compound shown here, O=c1cc(-c2ccc(O)c(O)c2)oc2cc(O)cc(O)c12 , give the reported IC50.
2.87

* * *

Test: Cytotoxicity against LPS-stimulated mouse RAW264.7 cells assessed as cell viability at 20 uM by MTT assay (reference value: 100.01 +/- 0.05 %)
Assay type: cell-based
Settings: LPS-stimulated RAW264.7 cells, read-out: Activity
Exercise: for every item that follows, state its recorded viability at 20 µM.
Give bare numbers, in %.

Go through the list and state viability at 20 µM for each entry.
1. COc1cc(OC)c2c(=O)cc(-c3ccccc3)oc2c1 [CHRYSIN DIMETHYL ETHER]
2. O=c1cc(-c2ccc(O)cc2)oc2ccccc12
3. COc1ccc(-c2cc(=O)c3c(OC)cc(OC)cc3o2)cc1 [TRIMETHYLAPIGENIN]
4. COc1ccc2c(=O)cc(-c3ccccc3)oc2c1 [7-METHOXYFLAVONE]
5. CC(C)(C)C(=O)Oc1ccc2c(=O)cc(-c3ccccc3)oc2c1

1. 134
2. 96.1
3. 103
4. 133
5. 102

Report viability at 20 µM for each item below.
1. O=c1cc(-c2ccc(Cl)cc2)oc2ccccc12
2. O=c1cc(-c2ccccc2)oc2cc3c(cc12)OCO3

85.8
119

* * *

Assay: Cytotoxicity against LPS-stimulated mouse RAW264.7 cells assessed as cell viability at 20 uM by MTT assay (reference value: 100.01 +/- 0.05 %)
Type: cell-based
Conditions: LPS-stimulated RAW264.7 cells, read-out: Activity
property: viability at 20 µM (%)
Numbers only, in %.

record_smiles	property	units_of_measure	result
O=c1cc(-c2ccc(-c3ccccc3)cc2)oc2ccccc12	viability at 20 µM	%	92.3
O=c1cc(-c2ccccc2)oc2ccc([N+](=O)[O-])cc12	viability at 20 µM	%	90.8
C[Si](C)(C)c1ccc(-c2cc(=O)c3ccccc3o2)cc1	viability at 20 µM	%	95
CC(C)(C)c1ccc(-c2cc(=O)c3ccccc3o2)cc1	viability at 20 µM	%	99.1
COc1ccc(-c2cc(=O)c3ccccc3o2)c(OC)c1	viability at 20 µM	%	107

Value sought for every listed compound: viability at 20 µM.
1. O=c1cc(-c2ccccc2)oc2ccccc12
2. O=c1cc(-c2ccc(F)cc2)oc2ccccc12

95.4
92.4

Can you share its viability at 20 µM? I mean this compound: COc1ccc(-c2cc(=O)c3ccccc3o2)cc1
111
